Assay: logP determination via HPLC retention times (calibration with unbranched alkan-2-ones)
Format: physicochemical
Conditions: HPLC on reversed-phase C 18 columns, EEC Directive 79/831 Annex V.A8; acidic aqueous mobile phase / acetonitrile, linear gradient 10% to 95% acetonitrile
reportedProperty: chromatographic logP

Input: Entry under review: "Cc1ccc(-c2c(C)nnc(Cl)c2-c2c(F)cccc2F)o1" . Reported chromatographic logP?
Output: 3.26

Input: Entry under review: "Cc1nnc(Cl)c(-c2cccc(Cl)c2)c1-c1cccs1" . Reported chromatographic logP?
Output: 3.34

Input: Entry under review: "Cc1nnc(Cl)c(-c2ccccc2Cl)c1-c1cccs1" . Reported chromatographic logP?
Output: 3.29

Input: Entry under review: "Cc1nnc(Cl)c(-c2cc(F)ccc2F)c1-c1ccc(Cl)s1" . Reported chromatographic logP?
Output: 3.42

Input: Entry under review: "Cc1nnc(Cl)c(-c2cc(F)c(F)cc2F)c1-c1ccc(Cl)s1" . Reported chromatographic logP?
Output: 4.01
